test.summary: qHTS Assay for Lipid Storage Modulators (AID 1519)
experimental.context: Drosophila S3 cells, BODIPY lipid droplet/cell ratio, laser cytometry; measured here: cell count channel max response; cells loaded with oleic acid
Records with an inconclusive call do not appear.
measured.attribute: max response (%)
The figure you give is taken to be in %; do not add the unit.

{"compound": "CC(=O)OCC1OC(n2c(Br)nc3c(=O)[nH]c(N)nc32)C(OC(C)=O)C1OC(C)=O (stereo unspecified)", "measured.attribute": "max response", "recorded.measurement": 9.1}
{"compound": "O=C(O)C(O)[C@@](O)(Cc1ccc(O)cc1)C(=O)O (stereo partly specified)", "measured.attribute": "max response", "recorded.measurement": 10.8}
{"compound": "O=C(NC1CCCCC1)NC1CCCCC1", "measured.attribute": "max response", "recorded.measurement": 16.8}
{"compound": "C[C@]1(OC(=O)/C=C\\c2ccccc2)C[C@@H](O)[C@@]2(O)C=CO[C@@H](O[C@H]3O[C@@H](CO)[C@@H](O)[C@@H](O)[C@@H]3O)[C@H]21", "measured.attribute": "max response", "recorded.measurement": -15.8}
{"compound": "C[C@@](N)(C(=O)O)c1cccc(CC(=O)O)c1", "measured.attribute": "max response", "recorded.measurement": 1.61}

Consider the compound COc1cc2c(cc1OC)Cc1cc(OC)c(OC)cc1Cc1cc(OC)c(OC)cc1C2 and give its measured max response. 2.54

---

test.summary: qHTS Assay for Lipid Storage Modulators (AID 1519)
experimental.context: Drosophila S3 cells, BODIPY lipid droplet/cell ratio, laser cytometry; measured here: lipid channel max response; cells loaded with oleic acid
Inconclusive results are not listed.
Entries annotated with measured max response
The figure you give is taken to be in %; do not add the unit.

{"molecule": "CC(C)c1c(O)c(-c2cc3c(c(C(C)C)c2O)CCC2C(C)(C)CCC[C@@]32C)cc2c1CCC1C(C)(C)CCC[C@@]21C (some centres not stated)", "measured.attribute": "max response", "recorded.measurement": 16.8}
{"molecule": "CN[C@H]1[C@H](O)[C@@H](O[C@@H]2[C@H](O)[C@@H](O[C@H]3OC(CN)=CC[C@H]3N)[C@@H](N)C[C@H]2N)OC[C@@]1(C)O", "measured.attribute": "max response", "recorded.measurement": -0.476}
{"molecule": "CC1CCC2(C(=O)O)CCC3(C)C(=CCC4C3(C)CCC3[C@@]4(C)CC(O)C(O)[C@@]3(C)CO)C2C1C (some centres not stated)", "measured.attribute": "max response", "recorded.measurement": 33.5}
{"molecule": "Cn1nnnc1SCC1=C(C(=O)O)N2C(=O)[C@@H](NC(=O)[C@@H](O)c3ccccc3)[C@@H]2SC1", "measured.attribute": "max response", "recorded.measurement": -13.8}
{"molecule": "CCC(=O)OC1C2CC3=C4CC(=O)OC(c5ccoc5)[C@]4(C)CCC3[C@@](C)(C2=O)C(CC(=O)OC)C1(C)C (some centres not stated)", "measured.attribute": "max response", "recorded.measurement": -17}

Proceed to the following item.
Consider the molecule CC(C)Oc1ccc2c(=O)cc(-c3ccccc3)oc2c1 and give its measured max response. 29.4

---

target.or.test.system: Glucocorticoid receptor (Homo sapiens)
test.summary: GR-GFP Redistribution (AID 450)
experimental.context: U2OS GR-GFP nuclear translocation, laser cytometry, 2 h
The source made the active and inactive calls.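 How the source made its calls: active means compounds whose dose series gives a full or clear partial fitted curve of increased nuclear translocation; inconclusive means weak partial curve or effect only at the top dose; inactive means no dose-dependent translocation response.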
Use one of these outcomes when replying: active, inactive

{"sample.smiles": "COC(=O)C1=C(C)NC(C)=C(C(=O)OCCN(C)Cc2ccccc2)[C@H]1c1cccc([N+](=O)[O-])c1", "discrete.label": "inactive"}

How did this test come out for CN[C@]1(C)[C@H]2CC[C@@H](C2)C1(C)C ? inactive

What about COc1cc(N)c(Cl)cc1C(=O)N[C@H]1CCN(CCCOc2ccc(F)cc2)C[C@H]1OC ? inactive

What about CC[C@@H]1OC(=O)[C@H](C)[C@H](O[C@@H]2C[C@](C)(OC)[C@H](O)[C@H](C)O2)[C@H](C)[C@H](O[C@@H]2O[C@@H](C)C[C@@H](N(C)C)[C@@H]2O)[C@](C)(O)C[C@H](C)C(=NOCOCCOC)[C@H](C)[C@H](O)[C@]1(C)O ? inactive

What about CC(=O)S[C@H]1CC2=CC(=O)CC[C@@]2(C)[C@H]2CC[C@@]3(C)[C@H](CC[C@]34CCC(=O)O4)[C@@H]12 ? active

What about Fc1ccc(Nc2nc(-c3cccnc3)nc3ccccc23)cc1 ? inactive

What about O=C1OCCN1/N=C\c1ccc([N+](=O)[O-])o1 ? inactive

Values were extracted from PubChem BioAssay (NCATS).
